Test system: CASKI
experimental.protocol: Primary qHTS to identify gynecologic anti-cancer compounds using libraries of approved drugs and bioactive compounds (AID 1345084); also: nearly all actives have a fitted effect of over 55% in size
measurement.setup: Gynecologic cancer cell panel viability, ATPlite luminescence, 48 h; series mostly up to 57.5 µM
Inconclusive results are not listed. Calls of active or inactive are those of the source. Calls follow the shape of the dose curve; as a rule, active = well fitted cell-killing curve with a large enough effect; inconclusive = small, poorly fitted or top-dose-only effect, or effect the other way; inactive = flat fitted curve, though single readings scatter.
metric.name: outcome

Here's what some known entries look like.
C[C@@H](O)[C@H]1C(=O)N2C(C(=O)O)=C(S[C@@H]3CN[C@H](C(=O)N(C)C)C3)[C@H](C)[C@H]12; inactive
COc1ccc2c(Oc3ccc(NC(=O)c4c(C)n(CC(C)(C)O)n(-c5ccccc5)c4=O)cc3F)ccnc2c1; inactive
O=c1[nH]cnc2c1ncn2[C@H]1CC[C@@H](CO)O1; inactive
NCCS; inactive
CC(=O)c1ccc(S(=O)(=O)NC(=O)NC2CCCCC2)cc1; inactive
CC(=O)Oc1cc2c(s1)CCN(C(C(=O)C1CC1)c1ccccc1F)C2 (configuration not stated); inactive

// outcome lookup, molecule = "OC[C@@H](O)[C@H](O)[C@H](O)[C@@H](O)CO" , result: inactive

* * *

experimental.protocol: Quantitative High-Throughput drug screen in 47 multiple myeloma cell lines against the NCATS MIPE library collection: OCIMY7_PLB cell viability assay (AID 1918987); also: nearly all actives have a fitted effect of over 65% in size
measurement.setup: OCI-MY7 myeloma viability, CellTiter-Glo ATP, 48 h
Results filed as inconclusive are left out. Active and inactive are the calls of the source. Calls come from the whole dose curve; as a rule, active = well fitted cell-killing curve with a large enough effect; inconclusive = small, poorly fitted or top-dose-only effect, or effect the other way; inactive = no such curve, though single readings can be large or run the other way.
Just give me one of these, please: active, inactive

Cc1c(O)cccc1C(=O)N[C@@H](CSc1ccccc1)[C@H](O)CN1C[C@H]2CCCC[C@@H]2C[C@@H]1C(=O)NC(C)(C)C; active

Q: Assay outcome for CCCCCNC(=O)N1CCC(CN(Cc2ccc(Cl)cc2)Cc2ccc([N+](=O)[O-])s2)C1 (stereo unspecified) : what was it?
Ans: active

Q: Assay outcome for "COc1cc2nc(-c3ccc(N4CCN(C)CC4)cc3)nc(NCCN3CCOCC3)c2cc1OC" : what was it?
Ans: active

Q: Assay outcome for "CO[C@@H](C(=O)N1Cc2[nH]nc(NC(=O)c3ccc(N4CCN(C)CC4)cc3)c2C1)c1ccccc1" : what was it?
Ans: active

Q: Assay outcome for "CO[C@H]1C(=O)[C@]2(C)[C@@H](OC)C[C@H]3OC[C@@]3(OC(C)=O)[C@H]2[C@H](OC(=O)c2ccccc2)[C@]2(O)C[C@H](OC(=O)[C@H](O)[C@@H](NC(=O)OC(C)(C)C)c3ccccc3)C(C)=C1C2(C)C" : what was it?
Ans: inactive

Q: Assay outcome for "CN(C)Cc1ccc(-c2nc3cccc4c3n2CCNC4=O)cc1" : what was it?
Ans: active

* * *

experimental.protocol: Quantitative High-Throughput drug screen in 47 multiple myeloma cell lines against the NCATS MIPE library collection: ARD_JJKsccE7 cell viability assay (AID 1918929)
measurement.setup: ARD myeloma cell line viability, CellTiter-Glo, 48 h; series mostly up to 45.8 µM
Results filed as inconclusive are left out. The source made the active and inactive calls. Calls come from the whole dose curve; as a rule, active = well fitted cell-killing curve with a large enough effect; inconclusive = small, poorly fitted or top-dose-only effect, or effect the other way; inactive = no such curve, though single readings can be large or run the other way.
Just give me one of these, please: Y for active, N for inactive

Some solved cases for reference:
CS(=O)c1ccc(-c2nc(-c3ccc(F)cc3)c(-c3ccncc3)[nH]2)cc1 (configuration not stated); Y
Clc1cc(Cl)cc(CNc2ncncc2-c2ccc3c(c2)OCO3)c1; Y
Cc1cnc(C(=O)O)c[n+]1[O-]; N
CC1(C)S[C@H]2[C@H](NC(=O)[C@@H](N)c3ccc(O)cc3)C(=O)N2[C@@H]1C(=O)O; Y
NS(=O)(=O)c1cccc2c1C(=O)c1cccc(O)c1C2=O; Y
O=C(Nc1cccc(Br)c1)c1cccc(S(=O)(=O)N2CCCCCC2)c1; Y

Below: the item to evaluate.
Q: Assay outcome for "COCCOc1nc(-c2ccc(Cl)c(Cl)c2)n(-c2ccc(NC(=O)CCl)cc2)n1" : what was it?
Ans: Y
